# METHOD SUMMARY: Thermo Scientific Acclaim RSLC 120 C18, 100 × 2.1 mm, 2.2 µm, 30 °C; A: 90% water + 10% methanol + 0.01% formic acid + 5 mM ammonium formate; B: methanol + 0.01% formic acid + 5 mM ammonium formate; gradient (min/%B) 0.1/1 3/39 14/99.9 16/99.9
# CONDITION DESCRIPTION: stereoisomer not certain

COMPOUND: CCC1(C2OC(C3OC(O)(CO)C(C)CC3C)CC2C)CCC(C2(C)CCC3(CC(O)C(C)C(C(C)C(OC)C(C)C(=O)O)O3)O2)O1 (stereo unspecified)
LC retention time: 13.8 min

COMPOUND: CCNP(=S)(OC)OC(C)=CC(=O)OC(C)C (stereo unspecified)
LC retention time: 9.79 min

COMPOUND: Nc1ncn[nH]1
LC retention time: 1.44 min

COMPOUND: CCC1C2CC3C4N(C)c5ccccc5C45CC(C2C5O)N3C1O (stereo unspecified)
LC retention time: 5.19 min

COMPOUND: COC(=O)NC(=S)Nc1ccccc1NC(=S)NC(=O)OC
LC retention time: 6.93 min

COMPOUND: CN(C)CCCN1c2ccccc2Sc2cccnc21
LC retention time: 7.21 min

COMPOUND: CN1CCC(OC(c2ccccc2)c2ccccc2)CC1
LC retention time: 7.23 min

COMPOUND: CC(C)(C)c1n[nH]c(=O)n(N)c1=O
LC retention time: 5.89 min

COMPOUND: CCn1cc(C(=O)O)c(=O)c2cc3c(cc21)OCO3
LC retention time: 6.03 min

COMPOUND: CSc1nnc(C(C)(C)C)c(=O)[nH]1
LC retention time: 7.46 min

COMPOUND: CCc1ccc(C(=O)NN(C(=O)c2cc(C)cc(C)c2)C(C)(C)C)cc1
LC retention time: 10.4 min

COMPOUND: O=C(O)C(c1ccccc1)C1CCCCN1 (stereo unspecified)
LC retention time: 4.61 min

COMPOUND: CC12CCC3C(CCC4=CC(=O)CCC43C)C1CCC2=O (stereo unspecified)
LC retention time: 9.36 min

COMPOUND: NC(Cc1cnc[nH]1)C(=O)O (stereo unspecified)
LC retention time: 1.23 min

COMPOUND: CC(C)(C)NCC(O)c1cc(O)cc(O)c1 (stereo unspecified)
LC retention time: 3.11 min

COMPOUND: O=S(=O)(O)c1ccc2ccccc2c1
LC retention time: 5.44 min

COMPOUND: C=CCCCn1cc(C(=O)c2cccc3ccccc23)c2ccccc21
LC retention time: 12 min

COMPOUND: CNCC(O)c1ccc(O)c(O)c1 (stereo unspecified)
LC retention time: 1.38 min

COMPOUND: CCC(N)Cc1c[nH]c2ccccc12 (stereo unspecified)
LC retention time: 5.04 min

COMPOUND: Cc1nnc(-c2ccccc2)c(=O)[nH]1
LC retention time: 5.29 min

COMPOUND: COP(N)(=S)Oc1ccccc1C(=O)OC(C)C (stereo unspecified)
LC retention time: 8.32 min

COMPOUND: CCCC1C(=O)N2C(N(C)C)=Nc3ccc(C)cc3N2C1=O (stereo unspecified)
LC retention time: 6.54 min

COMPOUND: O=c1[nH]c2c(c(=O)n1C1CCCCC1)CCC2
LC retention time: 8.27 min

COMPOUND: COc1ncnc(NS(=O)(=O)c2ccc(N)cc2)c1OC
LC retention time: 4.75 min

COMPOUND: NC12CC3CC(CC(C3)C1)C2
LC retention time: 4.86 min

COMPOUND: CCCN(CCC)C(=O)SCC
LC retention time: 10.7 min

COMPOUND: S=c1[nH]c2ccccc2s1
LC retention time: 6.89 min

COMPOUND: CC12CCC(=O)C=C1CCC1C2CCC2(C)C(OC(=O)c3ccccc3)CCC12 (stereo unspecified)
LC retention time: 13.8 min

COMPOUND: CC(Cc1ccccc1)NCCn1cnc2c1c(=O)n(C)c(=O)n2C (stereo unspecified)
LC retention time: 5.06 min

COMPOUND: CN1CCC23c4c5ccc(OCCN6CCOCC6)c4OC2C(O)C=CC3C1C5 (stereo unspecified)
LC retention time: 2.73 min

COMPOUND: CCCCCn1cc(C(=O)c2cccc3ccccc23)c2ccccc21
LC retention time: 12.4 min

COMPOUND: CCCCSP(=O)(SCCCC)SCCCC
LC retention time: 13.4 min

COMPOUND: CCC1OC(=O)C(C)C(OC2CC(C)(OC)C(O)C(C)O2)C(C)C(OC2OC(C)CC(N(C)C)C2O)C(C)(O)CC(C)C(=NOCOCCOC)C(C)C(O)C1(C)O (stereo unspecified)
LC retention time: 9.23 min

COMPOUND: CC(C)(C)c1ccc(C(=O)CCCN2CCC(OC(c3ccccc3)c3ccccc3)CC2)cc1
LC retention time: 10.9 min

COMPOUND: COc1ccc(C(=O)c2cn(CCCCC(=O)O)c3ccccc23)cc1
LC retention time: 8.81 min

COMPOUND: CCOC(=O)CCN(SN(C)C(=O)Oc1cccc2c1OC(C)(C)C2)C(C)C
LC retention time: 11.9 min

COMPOUND: Cc1onc(-c2ccccc2)c1-c1ccc(S(N)(=O)=O)cc1
LC retention time: 7.37 min

COMPOUND: CN(C)C(=O)Nc1ccccc1
LC retention time: 5.12 min

COMPOUND: CCOP(=O)(SC(C)CC)SC(C)CC (stereo unspecified)
LC retention time: 11.5 min

COMPOUND: CCCSP(=S)(OCC)Oc1ccc(SC)cc1 (stereo unspecified)
LC retention time: 12.8 min

COMPOUND: Cc1cc(C2CC2)nc(Nc2ccccc2)n1
LC retention time: 11 min
